Would you kindly list Total Cell Count for each of these compounds?
Test system: HEK-293T
Test: Multiplex assay against HEK293T
Type: toxicity, cell-based
Details: human, 48 h, 10 µM, compound concentration 10 uM, replicate 2

- COMPOUND: "CCNC1(C(N)=O)CCN(c2ncnc3c2nc(-c2ccccc2Cl)n3-c2ccc(Cl)cc2)CC1 [OTENABANT]"
  Total Cell Count: 325
- COMPOUND: "COc1cc(C(=O)N(CCCc2ccccc2)Cc2ccc(CC(=O)O)cc2)cc(OC)c1C"
  Total Cell Count: 632
- COMPOUND: "CN1CCN2c3ncccc3Cc3ccccc3C2C1 (stereo not drawn) [MIRTAZAPINE]"
  Total Cell Count: 521
- COMPOUND: "Cc1ccc(F)cc1C(=O)Nc1ccc(C(=O)N2Cc3cccn3Cc3ccccc32)c(Cl)c1 [LIXIVAPTAN]"
  Total Cell Count: 437
- COMPOUND: "C[C@H](NC(=O)c1c(C(F)F)nn(C)c1Oc1cccc(C(F)(F)F)c1)c1ccc(C(=O)O)cc1 [PALUPIPRANT]"
  Total Cell Count: 554
- COMPOUND: "CCCn1c(=O)c2[nH]c(C3CCCC3)nc2n(CCC)c1=O"
  Total Cell Count: 516

Okay, here is my list. What is Total Cell Count for each of these?
1. CSCC[C@H](NC=O)C(=O)N[C@@H](CC(C)C)C(=O)N[C@@H](Cc1ccccc1)C(=O)O
2. Oc1c(CN2CCN(c3ccccn3)CC2)cc(Cl)c2cccnc12
3. CC(=O)NCCc1c(Cc2ccccc2)[nH]c2ccccc12 [LUZINDOLE]
4. N[C@@]1(C(=O)O)CO[C@H]2[C@H](C(=O)O)[C@H]21 [LY-379268]
5. Cl.Clc1ccc2nsnc2c1NC1=NCCN1 [TIZANIDINE HYDROCHLORIDE]
6. COc1ccccc1N1CCN(CCCCNC(=O)c2ccc3ccccc3c2)CC1.Cl

(A)
674
295
573
689
600
329

Okay, here is my list. What is Total Cell Count for each of these?
1. Cc1ccc(-c2ccc(F)cc2COc2ccc(CCC(=O)O)cc2)cc1
2. Cc1nc2ccc(Oc3ccc(F)cc3)cc2c(=O)n1C[C@H]1CCCN(C(C)C)C1.Cl

(A)
1. 702
2. 459

Okay, here is my list. What is Total Cell Count for each of these?
1. COc1c(C)cc(NC(=O)c2nn(Cc3ccc(F)cc3)c3c2CN(C(=O)c2ccc[nH]2)C[C@]3(C)C(N)=O)cc1C
2. O=C(NCCO)c1cccc(-c2cc(Nc3ccc(OC(F)(F)F)cc3)ncn2)c1
3. O=C(NCC(=O)N1CC[C@H](N[C@H]2CC[C@@](O)(c3ccc(-c4ncccn4)cn3)CC2)C1)c1cccc(C(F)(F)F)c1 [PF-4136309]
4. C[C@H]1[C@H]2CC[C@H]3[C@@H]4CC=C5C[C@@H](N(C)C)CC[C@]5(C)[C@H]4CC[C@]23CN1C [CONESSINE]

(A)
1: 376; 2: 504; 3: 468; 4: 618

Value source: ChEMBL document CHEMBL5058577
